Target: PTP1B (protein tyrosine phosphatase 1B) (Homo sapiens, UniProt P18031)
Sequence (P18031 whole entry): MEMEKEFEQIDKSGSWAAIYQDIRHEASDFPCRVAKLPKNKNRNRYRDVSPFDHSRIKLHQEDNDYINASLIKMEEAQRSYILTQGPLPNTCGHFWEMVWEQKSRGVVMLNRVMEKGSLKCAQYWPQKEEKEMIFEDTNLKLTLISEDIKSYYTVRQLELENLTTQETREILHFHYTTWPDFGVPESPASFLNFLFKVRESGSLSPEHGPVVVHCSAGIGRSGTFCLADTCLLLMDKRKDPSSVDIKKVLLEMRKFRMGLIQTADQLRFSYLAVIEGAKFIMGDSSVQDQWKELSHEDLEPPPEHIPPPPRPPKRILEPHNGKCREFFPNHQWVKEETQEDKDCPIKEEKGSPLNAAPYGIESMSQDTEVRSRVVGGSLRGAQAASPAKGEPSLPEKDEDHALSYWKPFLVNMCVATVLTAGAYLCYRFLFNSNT
Assay: p-NPP hydrolysis assay with recombinant human PTP1B; Lineweaver-Burk kinetics
READOUT KIND: pIC50
Hey, just a heads up that pIC50 is the negative log base 10 of the concentration in molar.

Data request: Return reported pIC50; argument: O=C(O)C[C@@H]1C(C(=O)O)=CO[C@@H](O[C@@H]2O[C@H](CO)[C@@H](O)[C@H](O)[C@H]2O)C1=CCOC(=O)/C=C/c1ccc(O)cc1 [compound 3, Symplocochinside C]
Data returned: 4.71

Data origin: paper PMC6381099
